Give measured MCC for each item. Keep answers brief.
ASSAY INFO: Cytotoxicity against HEL assessed as minimum cytotoxic concentration required to cause microscopically detectable alteration in cell morphology
Assay type: cell-based
TEST CONDITIONS: human, HEL cells

Input `Nc1ccc(OCCCCCn2ccc(=O)[nH]c2=O)cc1` , output reported MCC. > 100 µM

Input `O=c1ccn(CCCCCOc2ccc(Cl)cc2)c(=O)[nH]1` , output reported MCC. > 100 µM

Input `CC(C)(C)c1ccc(OCCCCCn2ccc(=O)[nH]c2=O)cc1` , output reported MCC. 100 µM

Input `CCCOC(=O)c1ccc(OCCCCCn2ccc(=O)[nH]c2=O)cc1` , output reported MCC. ≥ 100 µM

Input `O=c1ccn(CCCCCOc2ccc(-c3ccccc3)cc2)c(=O)[nH]1` , output reported MCC. 100 µM

Input `O=c1[nH]c(=O)n(CCCCCOc2ccc(Br)cc2)cc1I` , output reported MCC. ≥ 100 µM
